- Tested on: TTR (gene 7276)
- method-description: CCTE_GLTED_hTTR_0.5uM: CCTE's human Transthyretin (hTTR) Inhibition Assay, with 0.5uM TTR, Great Lakes Toxicology and Ecology Division (GLTED) Lab (AID 2284320)
The source made the active and inactive calls. The calls were made as follows: active = hit-call score of the fitted dose curve at least 0.9, where 1 is the maximum; inactive = score below 0.9.
Reported AC50 is given for each of the following compounds.

Use these answered entries as a reference point.
[[record]]
compound = "O=C(O)C=CC(F)(C(F)(F)F)C(F)(F)F"
value_kind = "AC50"
result = "9.44 µM (active)"

[[record]]
compound = "O=C(O)C(F)(F)OC(F)(F)C(F)(F)OC(F)(F)C(=O)O"
value_kind = "AC50"
result = "0.746 µM (active)"

[[record]]
compound = "C=CC(=O)OCC(F)(F)C(F)F"
value_kind = "AC50"
result = "56.8 µM (active)"


Challenge: Return reported AC50. Input compound: O=S(=O)(F)C(F)(F)C(F)(F)C(F)(F)C(F)(F)C(F)(F)C(F)(F)C(F)(F)C(F)(F)F
Response given: 55 µM (active)

Challenge: Return reported AC50. Input compound: COC(=O)C(F)(F)C(F)(F)OC(F)(C(F)(F)F)C(F)(F)OC(F)=C(F)F (stereo unspecified)
Response given: 0.977 µM (active)

Challenge: Return reported AC50. Input compound: OCC(F)(F)OC(F)(F)C(F)(F)OC(F)(F)CO
Response given: 40.1 µM (active)

----------
- method-description: ATG_VDRE_CIS: Attagene CIS-FACTORIAL HepG2 Assay for human Vitamin D Receptor Element (VDRE) (AID 2282968)
- experimental-parameters: HepG2 VDRE cis-reporter transcription, actives raise or lower the signal
Active and inactive are the calls of the source. The calls were made as follows: active = hit-call score of the fitted dose curve at least 0.9, where 1 is the maximum; inactive = score below 0.9.
Thanks in advance; please answer with one of these: active, inactive

Worked set:
[[record]]
molecule = "O=NN1CCCC1"
label_value = "inactive"

[[record]]
molecule = "OCC(F)(F)OC(F)(F)C(F)(F)OC(F)(F)C(F)(F)OC(F)(F)CO"
label_value = "active"

[[record]]
molecule = "ClC(Cl)c1ccccc1"
label_value = "inactive"


Challenge: Could you check what this test reported for CO/N=C(/C(=O)OC)c1ccccc1COc1ccccc1C ?
Response given: active

Challenge: Could you check what this test reported for CCOP(=O)(O)C(N)=O ?
Response given: inactive

Challenge: Could you check what this test reported for O=P1(N(CCCl)CCCl)NCCCO1 (stereo not drawn) ?
Response given: inactive

Challenge: Could you check what this test reported for CCCN(CCC)c1c([N+](=O)[O-])cc(C(C)C)cc1[N+](=O)[O-] ?
Response given: inactive

Challenge: Could you check what this test reported for FC(F)(F)c1ccc(Cl)cc1 ?
Response given: inactive

Challenge: Could you check what this test reported for CC(Cc1ccc(OCC(=O)O)cc1)NCC(O)c1csc(C(F)(F)F)n1 (stereo not drawn) ?
Response given: inactive

Challenge: Could you check what this test reported for Cc1ccc([N+](=O)[O-])cc1C ?
Response given: inactive

Challenge: Could you check what this test reported for CCCCCCCc1ccc(O)cc1 ?
Response given: inactive

Challenge: Could you check what this test reported for CCOP(=S)(Oc1ccc([N+](=O)[O-])cc1)c1ccccc1 (stereo not drawn) ?
Response given: active

Challenge: Could you check what this test reported for CCOc1ccc(C(C)(C)COCc2cccc(Oc3ccccc3)c2)cc1 ?
Response given: active

----------
- system-name: Estrogen receptor (Homo sapiens) (UniProt P03372)
- Sequence (P03372 whole entry, looked up): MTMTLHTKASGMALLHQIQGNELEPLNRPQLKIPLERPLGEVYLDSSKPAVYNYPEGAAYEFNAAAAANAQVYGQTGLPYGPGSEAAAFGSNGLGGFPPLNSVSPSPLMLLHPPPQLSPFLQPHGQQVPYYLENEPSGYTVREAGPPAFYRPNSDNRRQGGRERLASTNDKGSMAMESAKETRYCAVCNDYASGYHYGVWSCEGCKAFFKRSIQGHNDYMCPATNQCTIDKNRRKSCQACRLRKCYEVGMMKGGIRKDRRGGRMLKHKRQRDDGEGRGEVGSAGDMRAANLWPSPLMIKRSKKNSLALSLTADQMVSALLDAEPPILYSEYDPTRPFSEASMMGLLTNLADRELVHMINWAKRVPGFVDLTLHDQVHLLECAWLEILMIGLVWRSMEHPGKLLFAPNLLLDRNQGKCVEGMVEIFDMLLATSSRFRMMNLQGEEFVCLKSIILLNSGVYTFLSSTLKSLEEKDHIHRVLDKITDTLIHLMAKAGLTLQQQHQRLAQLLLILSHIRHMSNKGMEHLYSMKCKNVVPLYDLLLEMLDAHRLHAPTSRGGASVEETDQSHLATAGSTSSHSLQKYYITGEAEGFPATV
- method-description: CCTE_Deisenroth_AIME_384WELL_LUC_Active: CCTE's 384-well Estrogen Receptor Transactivation Assay with AIME metabolic competence (ERTA luciferase; metabolism positive), Deisenroth Lab (AID 2284030)
Results filed as inconclusive are left out. Calls of active or inactive are those of the source. Rule for the calls: active = hit-call score of the fitted dose curve at least 0.9, where 1 is the maximum; inconclusive = response in the unintended direction; inactive = score below 0.9.
Thanks in advance; please answer with one of these: active, inactive

Worked set:
[[record]]
compound = "O=[N+]([O-])c1ccccc1"
label_value = "inactive"

[[record]]
compound = "CCCCc1ccccc1"
label_value = "inactive"

[[record]]
compound = "O=c1ssc(Cl)c1Cl"
label_value = "inactive"

[[record]]
compound = "CCC(C)(C)c1ccc(O)cc1"
label_value = "active"

[[record]]
compound = "CCCCN(CCCC)N=O"
label_value = "inactive"


Challenge: Could you check what this test reported for c1ccc(OP(Oc2ccccc2)Oc2ccccc2)cc1 ?
Response given: active

Challenge: Could you check what this test reported for CCCN(CCC)c1c([N+](=O)[O-])cc(C(C)C)cc1[N+](=O)[O-] ?
Response given: active

----------
- Read-out: Plasminogen activator inhibitor-1 (PAI1), SERPINE1 (gene 5054)
- method-description: BSK_KF3CT_PAI1: BioMAP Diversity Plus: KF3CT Assay for Plasminogen activator inhibitor-1 (PAI1) Biomarker Activity (AID 2284252)
- experimental-parameters: primary human keratinocytes with fibroblasts
Calls of active or inactive are those of the source. How the source made its calls: active means hit-call score of the fitted dose curve at least 0.9, where 1 is the maximum; inactive means score below 0.9.
value-kind: outcome

[[record]]
molecule = "NC(=O)C(F)(F)C(F)(F)F"
result = "inactive"

[[record]]
molecule = "O=C(O)C(F)(F)OC(F)(F)C(F)(F)OC(F)(F)C(=O)O"
result = "inactive"

[[record]]
molecule = "O=C(O)C=CC(F)(C(F)(F)F)C(F)(F)F"
result = "inactive"


----------
- Read-out: Monocyte Chemoattractant Protein-1 (MCP1), CCL2 (gene 6347)
- method-description: BSK_3C_MCP1: BioMAP Diversity Plus: 3C Assay for Monocyte Chemoattractant Protein-1 (MCP1) Biomarker Activity (AID 2283017)
- experimental-parameters: primary human endothelial cells (HUVEC); actives raise or lower the signal
Calls of active or inactive are those of the source. How the source made its calls: active means hit-call score of the fitted dose curve at least 0.9, where 1 is the maximum; inactive means score below 0.9.
value-kind: AC50

Use these answered entries as a reference point.
[[record]]
compound = "CCOP(=S)(S)OCC"
result = "inactive"

[[record]]
compound = "NC(=O)C(F)(F)C(F)(F)F"
result = "inactive"

[[record]]
compound = "CC(Cl)(Cl)C(=O)O"
result = "inactive"

[[record]]
compound = "N#Cc1cc([N+](=O)[O-])ccc1N"
result = "inactive"

[[record]]
compound = "CC(C)(C)OOC(C)(C)C"
result = "inactive"


Challenge: Return reported AC50. Input compound: O=C(O)C(F)(F)OC(F)(F)C(F)(F)OC(F)(F)C(=O)O
Response given: inactive

Challenge: Return reported AC50. Input compound: ClC(Cl)=C(c1ccc(Cl)cc1)c1ccccc1Cl
Response given: 12.1 µM (active)

Challenge: Return reported AC50. Input compound: Cc1ccc(N)cc1N
Response given: inactive

Challenge: Return reported AC50. Input compound: O=c1ssc(Cl)c1Cl
Response given: 8.43 µM (active)

Challenge: Return reported AC50. Input compound: CCCCCCCc1ccc(O)cc1
Response given: 37.6 µM (active)

Challenge: Return reported AC50. Input compound: CC(C)(C)c1ccc(O)cc1
Response given: inactive

Challenge: Return reported AC50. Input compound: OCC(F)(F)OC(F)(F)C(F)(F)OC(F)(F)C(F)(F)OC(F)(F)CO
Response given: inactive

Challenge: Return reported AC50. Input compound: CCCCc1ccccc1
Response given: inactive

Challenge: Return reported AC50. Input compound: c1nc[nH]n1
Response given: inactive

----------
- system-name: Heat shock factor protein 1 (Homo sapiens) (UniProt Q00613)
- Sequence (Q00613 whole entry, looked up): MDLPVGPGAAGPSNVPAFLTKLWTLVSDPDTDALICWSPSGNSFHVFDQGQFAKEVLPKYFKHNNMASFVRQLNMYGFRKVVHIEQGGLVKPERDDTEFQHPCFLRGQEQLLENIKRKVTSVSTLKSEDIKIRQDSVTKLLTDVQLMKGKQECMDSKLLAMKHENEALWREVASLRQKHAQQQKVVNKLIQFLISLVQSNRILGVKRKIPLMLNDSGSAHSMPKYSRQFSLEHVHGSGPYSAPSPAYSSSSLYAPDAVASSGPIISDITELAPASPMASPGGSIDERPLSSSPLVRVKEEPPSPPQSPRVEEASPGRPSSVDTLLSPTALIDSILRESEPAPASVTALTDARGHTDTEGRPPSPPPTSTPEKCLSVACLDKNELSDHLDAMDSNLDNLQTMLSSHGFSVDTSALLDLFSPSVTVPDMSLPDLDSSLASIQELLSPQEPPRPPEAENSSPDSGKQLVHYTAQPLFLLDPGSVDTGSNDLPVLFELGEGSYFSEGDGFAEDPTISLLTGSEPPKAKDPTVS
- method-description: ATG_HSE_CIS: Attagene CIS-FACTORIAL HepG2 Assay for human Heat Shock Transcription Factor 1 (HSE) (AID 2282953)
- experimental-parameters: HepG2 HSE cis-reporter, Attagene RNA transcription; actives raise or lower the signal
Active and inactive are the calls of the source. Rule for the calls: active = hit-call score of the fitted dose curve at least 0.9, where 1 is the maximum; inactive = score below 0.9.
Thanks in advance; please answer with one of these: active, inactive

[[record]]
compound = "O=S(=O)(c1ccc(O)cc1)c1ccc(O)cc1"
label_value = "inactive"


Challenge: Could you check what this test reported for CCOP(=S)(OCC)SCSCC ?
Response given: inactive

Challenge: Could you check what this test reported for Nc1ccc(Sc2ccc(N)cc2)cc1 ?
Response given: inactive

Challenge: Could you check what this test reported for COCCOCCO ?
Response given: inactive

Challenge: Could you check what this test reported for CCCCN(CC)C(=O)SCCC ?
Response given: inactive

Challenge: Could you check what this test reported for CCC(C)(C)c1ccc(O)cc1 ?
Response given: inactive

Challenge: Could you check what this test reported for O=c1ssc(Cl)c1Cl ?
Response given: active

Challenge: Could you check what this test reported for CC(O)C#N (stereo unspecified) ?
Response given: inactive

----------
- method-description: ATG_TA_CIS: Attagene CIS-FACTORIAL HepG2 Assay for human TA Basal Promoter (AID 2282964)
- experimental-parameters: HepG2 Attagene CIS-factorial TA basal promoter reporter; actives raise or lower the signal
The source made the active and inactive calls. The calls were made as follows: active = hit-call score of the fitted dose curve at least 0.9, where 1 is the maximum; inactive = score below 0.9.
Thanks in advance; please answer with one of these: label 1 = active, label 0 = inactive

Worked set:
[[record]]
compound = "c1nc[nH]n1"
label_value = "label 0"

[[record]]
compound = "CCOP(=S)(NC(C)C)Oc1ccccc1C(=O)OC(C)C (centres undefined)"
label_value = "label 0"

[[record]]
compound = "COP(=O)(CCC(=O)NCO)OC"
label_value = "label 0"


--- query ---
Challenge: Could you check what this test reported for CC(O)C#N (centres undefined) ?
Response given: label 0

Origin of the recorded values: PubChem BioAssay (EPA / NIEHS)
